tested on: Pseudomonas aeruginosa; experiment: Antibacterial activity against gram- negative Pseudomonas aeruginosa ATCC 10145; type: functional
measured-parameter: MIC (µg/mL)
Give bare numbers, in µg/mL.

Look over these answered cases.
- compound-structure-string: "CO/N=C(/C(=O)N[C@@H]1C(=O)N2C(C(=O)O)=C(CSc3cc[n+](CC(C)=O)cc3)OC[C@H]12)c1csc(N)n1.O=S(=O)([O-])O"
  target-or-test-system: "Pseudomonas aeruginosa"
  result-unit: "µg/mL"
  MIC: 12.5
- compound-structure-string: "CCC(=O)C[n+]1ccc(SCC2=C(C(=O)O)N3C(=O)[C@@H](NC(=O)/C(=N/OC4CCCC4)c4csc(N)n4)[C@H]3CO2)cc1.O=S(=O)([O-])O"
  target-or-test-system: "Pseudomonas aeruginosa"
  result-unit: "µg/mL"
  MIC: 6.25

stdin: Please report MIC with Pseudomonas aeruginosa for item CO/N=C(/C(=O)N[C@@H]1C(=O)N2C(C(=O)O)=C(CSc3cc[n+](C)cc3)OC[C@H]12)c1csc(N)n1.O=S(=O)([O-])O .
stdout: 6.25
